# TARGET_OR_TEST_SYSTEM: JMJD2C (Homo sapiens (Human), UniProt Q9H3R0)
# Sequence (Q9H3R0 2-372): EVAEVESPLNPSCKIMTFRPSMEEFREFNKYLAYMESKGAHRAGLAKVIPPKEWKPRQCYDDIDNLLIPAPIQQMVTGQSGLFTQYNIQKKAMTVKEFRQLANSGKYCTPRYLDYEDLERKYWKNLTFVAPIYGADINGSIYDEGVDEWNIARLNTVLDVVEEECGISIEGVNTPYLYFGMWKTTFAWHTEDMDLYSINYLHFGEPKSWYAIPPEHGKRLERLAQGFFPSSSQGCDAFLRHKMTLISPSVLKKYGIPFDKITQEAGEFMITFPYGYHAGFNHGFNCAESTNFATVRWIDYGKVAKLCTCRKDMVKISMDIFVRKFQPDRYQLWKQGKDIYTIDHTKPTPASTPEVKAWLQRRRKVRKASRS
# ASSAY_TEXT: JMJD2C in vitro enzyme inhibition assay (TR-FRET)
# Type: biochemical
Recorded measurements of IC50, one per entry
ENDPOINT_NAME: IC50

COMPOUND: Cc1ccnn1-c1cc(C(=O)O)ccn1
ENDPOINT_VALUE: 100 to 1000 nM
--
COMPOUND: Cc1ccc(-c2ccnn2-c2cc(C(=O)O)ccn2)cc1
ENDPOINT_VALUE: 100 to 1000 nM
--
COMPOUND: O=C(O)c1ccnc(-n2ncc(CCO)c2OCc2ccc(F)cc2)c1
ENDPOINT_VALUE: 1000 to 10000 nM
--
COMPOUND: O=C(O)c1ccnc(-n2nccc2OCc2cccc(F)c2)c1
ENDPOINT_VALUE: < 100 nM
--
COMPOUND: O=C(O)c1ccnc(-n2nccc2OC2CCc3cc(Cl)ccc32)c1 (stereo not shown)
ENDPOINT_VALUE: 1000 to 10000 nM
--
COMPOUND: O=C(O)c1ccnc(-n2nc(Cc3cc(Cl)cc(Cl)c3)cc2O)c1
ENDPOINT_VALUE: 1000 to 10000 nM
--
COMPOUND: CC(c1ccccc1)c1cc(O)n(-c2cc(C(=O)O)ccn2)n1 (stereo not shown)
ENDPOINT_VALUE: 1000 to 10000 nM

----------
# TARGET_OR_TEST_SYSTEM: Jarid1B (Homo sapiens (Human), UniProt Q9UGL1)
# Sequence (Q9UGL1 2-751): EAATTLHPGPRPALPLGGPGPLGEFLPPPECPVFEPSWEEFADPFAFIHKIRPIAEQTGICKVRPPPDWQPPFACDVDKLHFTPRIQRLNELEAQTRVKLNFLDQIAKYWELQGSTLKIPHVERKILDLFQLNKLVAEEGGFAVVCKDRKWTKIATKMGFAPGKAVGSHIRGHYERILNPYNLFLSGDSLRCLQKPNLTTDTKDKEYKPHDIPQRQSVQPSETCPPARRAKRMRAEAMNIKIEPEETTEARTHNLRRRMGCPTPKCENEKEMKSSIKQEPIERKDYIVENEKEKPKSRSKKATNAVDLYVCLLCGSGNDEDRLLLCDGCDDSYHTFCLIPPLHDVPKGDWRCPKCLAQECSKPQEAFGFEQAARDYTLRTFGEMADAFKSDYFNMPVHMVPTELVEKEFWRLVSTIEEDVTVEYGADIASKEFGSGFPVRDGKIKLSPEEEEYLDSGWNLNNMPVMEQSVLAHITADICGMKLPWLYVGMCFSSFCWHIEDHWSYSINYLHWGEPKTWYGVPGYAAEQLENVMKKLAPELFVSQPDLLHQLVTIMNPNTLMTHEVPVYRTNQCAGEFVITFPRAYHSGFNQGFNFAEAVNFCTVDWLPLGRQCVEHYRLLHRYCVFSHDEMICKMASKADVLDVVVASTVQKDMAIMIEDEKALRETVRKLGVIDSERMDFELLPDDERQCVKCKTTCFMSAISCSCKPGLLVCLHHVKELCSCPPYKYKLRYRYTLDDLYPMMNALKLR
pIC50: −log10 of the molar value.

CHEMICAL_STRING: O=C(O)c1ccnc(-n2nc(Cc3ccc(Cl)cc3)cc2O)c1
pIC50: 6.00 to 7.00
--
CHEMICAL_STRING: Cc1ccc(COc2ccnn2-c2cc(C(=O)O)ccn2)c(F)c1F
pIC50: > 7.00
--
CHEMICAL_STRING: O=C(O)c1ccnc(-n2nccc2OCc2cccc(Cl)c2)c1
pIC50: > 7.00
--
CHEMICAL_STRING: O=C(O)c1ccnc(-n2nccc2OCc2ccccc2)c1
pIC50: > 7.00
--
CHEMICAL_STRING: O=C(O)c1ccnc(-n2nccc2OCc2ccc(Br)cc2)c1
pIC50: > 7.00
